Assay: soluble on expression in E. coli; label from the status in PepcDB or PDB records
QUANTITY: soluble on expression in E. coli

The cases that follow already have their soluble on expression in E. coli on record.
MACROMOLECULE_SEQUENCE: GDLLVVTLENITEAKQGEISLNAALHAAEKQERLYNSITNNTPDLVYVFGLDYSFTYANKALLTMWGKTAEEAIGKGLRENGYEEWHAQMHEREIDEIKATKKSIRGTVSFPHAELGSRMYDYILVPVLNESGEVEAIAGTTRD
soluble on expression in E. coli: not soluble
--
MACROMOLECULE_SEQUENCE: MRERRYSSTSPERLAAALFDVAAESGLEGASVREVAKRAGVSIGAVQHHFSTKDEMFAFALRTLVDKLLARLSEVERGGDPARALFAAMSQLLPLDEARSREAHVMAAFAVRAATSPSLAEIRRKTLFTIRTGLSAVLIGIGTPEAETRAALLLATVDGLALDAIGSPALYPPEYLEHALDIQIGMILQGADVVPSSSIELAS
soluble on expression in E. coli: soluble
--
MACROMOLECULE_SEQUENCE: MSLMSVVKVGVNGFGTIGRRVALAITLQKDMKLVGVVKRTPDYAALYAASRGIPIYTPTAKEAEEFEKRGIKVGGTLRELLARVDVVVDATPEGQGAKNKPLYREAGVKQVYQGGEKPEVAEASFSTLCNYEESKGRGSLRVVSCNTTGLLRLICTLNREFGVESVRAVLVRRGADPKEVKKGPIDSIVLNPPTLPSHHAVDVRTVLPWLDIKTAAVAVPTTFMHMHHVTLKLAKPVEKREVLETLASAPRIMLVSSGDTGIKSTSQLVDAARLSRMGYDIPELVVFEESVAVDGREVMLFQAVHQESIVVPENIDAIRAVASSPLTLDETLKATDGSLGLRKTLW
soluble on expression in E. coli: soluble
--
MACROMOLECULE_SEQUENCE: MAHHHHHHMLKHKYNDSCVQELFYKNNIKLIAIDIDGTLADDTGKISDENLKAIEVCKKGGIEIILASGRLHSYAMKMFTNEQIEKYKIEKLDGVYSHGAYIHMKGYDYVYRKFSYKDLELILFSLGSYNILRNAVFLTVDSAYVINDDIKLIEEYIYTPESEGIISDIEYVKIIDTNYKPILINKIKDIFNIGDIVSIEIYDKLYPNQDIYSDLFKVLFYELQPHYKIYIPSSNNKIVLSPINTAKVHTTQLYAQFYRINLNNILSIGNDDNDIELLSSTGFSVAVKNSTPRALQVARCVSTKTNNENAVANIIYRVLSGRRS
soluble on expression in E. coli: not soluble
--
MACROMOLECULE_SEQUENCE: SKKVIGKKRAHAEDDELDPMDPSSYSDAPRGGWVVGLKGVQPRAADTTASTGIFFKFQITDLTKPDEKIEVLTKRDQIVFQGPLFQQRPYPSPGAVLRRNAEVASSQKKKPNSQFTEITKRGDGSDGLGDAD
soluble on expression in E. coli: soluble
--
MACROMOLECULE_SEQUENCE: MSLTNFVCHTLYHLLITIIKLKDKENTRIFICDTITDYETWVKILNDQGIRTESFKEFAYREQLQNKNIEEVMELVDSDLNHYFERVDTQVYLFNDDTLIGRYMVYLGKNYHLIEDGYNCFQAKLFLGGSVVKRVIKTYLFKKYVPYGFSKYCLSIEVNSLVGLPHDIRSKKYKELPRKKLFDSLNKEQKSLIFKIFKTKPLTITPKSVLLLTQPLAQDKWYKTPTERFQSIQEQYDYFDDIVQEYRTLGYNVYLKVHPRDVVDYSKLPVELLPSNVPMEIIELMSTGRFECGITHSSTALDSLTCVDKKITLVDLKDIKEGHHHHHH
soluble on expression in E. coli: not soluble

Record soluble on expression in E. coli for all entries; do not skip any.
1. NAELAKSGIEVKNDVCEHFAYSRQELFHLIRIEEIKTFDELLEKYGKGYGCEVCKPLAGSILASCWGEHILKPQLVKLHDTNDNFLGNIQKDGTYSVIPRMAGGEVTPQALGALANVAAEYNLYTKVTGAQRIGLFGAQKDDLPEIWRKLIDAGFETGQAYAKALRMAKTCVGSTWCRYGVQDSVGLGSYIENRYKGIRTPHKMKFGVSGCTRECAEAQGKDLGIIATDAGWNMYVCGNGGMKPRHADLLASDLDKETLIKYIDRFMMFYIRTAAPLQRTSVWMENMEGGVDYLRAVIVEDKLGINAQLEADVAKLVDEYECEWTATINDASQLTRFAHFINSDKRDDNVVFVQEREQHRPATFTEKHPEAKGDILHVAITEA
2. MGSDKIHHHHHHMFENILWKMVKKRLIPKRKISRVHRSRKGVKRVVCVAFPLDQMFKSADDFIDALMEILQEDLPFVDLLIFPRLTGNLLAGVSPIRIENFEKLDPFYTDLLRYISKGLDVPIVAPGVETFRTSPDVLVIENGEVLHRYTLRERFAVADFGEWYAAVLRKEDTLSSKALRPLVEKNVFAFIHFDLETEENDWWKEKKGLWARSQSLEVFGIKVSPRGTFLGKTYRGKSYVSAPIPLTPNLTGFLRQDCGVKMSVDLELDLLKGKRHRIDTVKHILFRG
3. MSLSAPLPLCVIGAGCVGMRHVEVARRSPQIRLTAVVEPVETRRRALAESGLVAVATLEEVPRETRAAIVATPTPDHLATGLAALSRGWAVLVEKPTAGTMDDARVLLGAADRAGLPLYVGHHRRCHPFSRAAREALGGIGDLVGLQGLWSLRKHDSYYAEDWRRQAGAGPLMTNLSHEIDLLRFLVGDMVEVSALTSSARRGLVVPDTAALAFRFADGALGSFLISDAGASPWSFEAACAENPAIAVSGQDYIRITGTAGALEFPSLTRWGRSAPGEIEWSKPLARAAGAGFARVDPLLEQINRFAAVLEGAQDDVLCTGTDGNAALEMTLAAALSGKLGRPVRAHEVPGDYSGEGHHHHHH
4. DDGDCKNIYRYSPKDGKFEKLNLETDVTSAFALSEYNPGIAAYIGQSDYNAGVAYLYDMKKKTSSLLADPMKPILEKIELGKTEPWNFTASDGTVITGKMCLPPNFDPNKKYPMIVYYYGGTTPTTRGISNPYCAQLFASRDYVVYVIQPSGTIGFGQEFSARHVNAWGKRTADDIIEGTKQFCKEHPFVDEKKIGCLGASYGGFMTQYLQTQTDIFAAAVSHAGISDVTSYWGEGYWGYSYNAIAAADSYPWKDPDLFTKQGSLFNADKINTPLLLLHGTVDTNVPIGESIQLFNALKILGKTVEFVTVDGENHFISDYDKRIKWHNSIMAWFARWLQ

Data returned:
not soluble
not soluble
soluble
not soluble
